Molecular target: GPR119 receptor (UniProt Q8TDV5, S309L, species not given)
Assay: GPR119 signaling, cyclic AMP (cAMP) homogenous time resolved fluorescence (HTRF) assay
Conditions: CHO cells with Gα15 and murine GPR119, or HEK293 Flp-In cells with human GPR119 S309L; table does not say which; read-out: Activity: inflection points, denoted as EC50 values (agonist activation of GPR119, cAMP)
Reported EC50 values for a set of molecules

See these solved cases before continuing.
Cc1nnc(-c2ccc(OCC[C@H]3C[C@H]3C3CCN(c4ncc(Cl)c(C)n4)CC3)cc2F)o1 (racemic)    < 10 nM
Fc1cc(OCC[C@H]2C[C@@H]2C2CCN(c3ncc(Cl)cn3)CC2)ccc1-c1nnc(C2CC2)o1    10 to 50 nM
Clc1cnc(N2CCC(C3CC3CCOc3ccc(-c4ncno4)cc3)CC2)nc1 (racemic)    50 to 200 nM

Q: What does the data say about its EC50? Entry: Cc1nc(C#N)cc(OCC[C@@H]2C[C@@H]2C2CCN(c3cc(C)c(Cl)cn3)CC2)n1 (racemic)
Ans: 10 to 50 nM

Q: Can you share its EC50? I mean this molecule: Cc1cc(OC[C@@H]2C[C@H]2CC2CCN(c3ncc(Cl)cn3)CC2)nc(C#N)n1 (racemic)
Ans: 50 to 200 nM

Q: What measured EC50 goes with CS(=O)(=O)c1ccc(OCCC2CC2C2CCN(c3ncc(Cl)cn3)CC2)cc1 (racemic) ?
Ans: < 10 nM

Q: Looking for the measured EC50 of CS(=O)(=O)c1ccc(OCC[C@@H]2C[C@H]2C2CCN(c3ncc(Cl)cn3)CC2)cc1 (racemic) , can you help?
Ans: 10 to 50 nM

Q: So what does the record say about EC50 for CS(=O)(=O)c1ccc(OCC[C@H]2C[C@H]2C2CCN(c3ncc(Cl)cn3)CC2)nc1 (racemic) ?
Ans: < 10 nM

* * *

Target: GPR119 receptor (UniProt Q8TDV5, S309L, species not given)
Assay: GPR119 signaling, cyclic AMP (cAMP) homogenous time resolved fluorescence (HTRF) assay
Details: CHO cells with Gα15 and murine GPR119, or HEK293 Flp-In cells with human GPR119 S309L; table does not say which; read-out: Activity: inflection points, denoted as EC50 values (agonist activation of GPR119, cAMP)
pEC50: −log10 of the molar value.
// reported pEC50 per item

Cc1nnc(-c2ccc(OCC[C@H]3C[C@H]3C3CCN(c4ncc(F)cn4)CC3)cc2F)o1 (racemic)    > 8.00
N#Cc1ccc(OCC[C@H]2C[C@@H]2C2CCN(c3ncc(Cl)cn3)CC2)cc1F    6.70 to 7.30
N#Cc1ccc(OC[C@@H]2C[C@@H]2CC2CCN(c3ncc(Cl)cn3)CC2)cc1F (racemic)    < 6.70

Q: # input compound: N#Cc1ccc(OC[C@@H]2C[C@H]2CC2CCN(c3ncc(Cl)cn3)CC2)cc1F [Ex 105] ; wanted: its pEC50
Ans: < 6.70

* * *

Target: GPR119 receptor (UniProt Q8TDV5, S309L, species not given)
Assay: GPR119 signaling, cyclic AMP (cAMP) homogenous time resolved fluorescence (HTRF) assay
Settings: CHO cells with Gα15 and murine GPR119, or HEK293 Flp-In cells with human GPR119 S309L; table does not say which; read-out: Activity: inflection points, denoted as EC50 values (agonist activation of GPR119, cAMP)
pEC50: −log10 of the molar value.
property.label: pEC50

Solved cases (5 shown):
Fc1cnc(N2CCC(C3CC3CCOc3ccc(-n4cnnn4)c(F)c3)CC2)nc1 (racemic) [Ex 30d]    > 8.00
O=C(NC1CC1)c1ccc(OC[C@@H]2C[C@H]2CC2CCN(c3ncc(Cl)cn3)CC2)cc1F [Ex 107]    7.30 to 8.00
Cc1nc(C#N)cc(OCC[C@@H]2C[C@@H]2C2CCN(c3ccc(Cl)cn3)CC2)n1 (racemic) [Ex 43]    > 8.00
NS(=O)(=O)c1ccc(OC[C@H]2C[C@@H]2CC2CCN(c3ncc(Cl)cn3)CC2)cc1 [Ex 112]    6.70 to 7.30
Clc1cnc(N2CCC(C3CC3CCOc3ccc(-c4cocn4)cc3)CC2)nc1 (racemic) [Ex 19]    7.30 to 8.00

Q: Given the entry Clc1cnc(N2CCC(C3CC3CCOc3ccc(-c4cnn[nH]4)cc3)CC2)nc1 (racemic) [Ex 29] , report its measured pEC50.
Ans: < 6.70

Q: Record request: pEC50 value, item Clc1cnc(N2CCC(C3CC3CCOc3ccc(-n4cnnn4)cc3)CC2)nc1 (racemic) [Ex 30]
Ans: > 8.00

Q: GET /values?readout=pEC50&item= Fc1cc(OC[C@@H]2C[C@H]2CC2CCN(c3ncc(Cl)cn3)CC2)ccc1-c1nnc(C2CC2)o1 (racemic) [Ex 111]
Ans: 7.30 to 8.00
